src = the supplement of paper PMC11061612

# Test system: NCI-H727 (Other Solid Carcinomas)
# METHOD NOTES: combination Emax (second highest fraction inhibited in the dose matrix, 72 h); higher = more inhibition; extreme values may be limits of the assay
Recorded combination Emax, one value per entry.
MEASUREMENT LABEL: combination Emax

1. COc1nnc2ccc(N3CCC(c4ccc(OCCN5CCN(C)C(=O)[C@H]5C)cc4)CC3)nn12 [AZD5153] + CC1(C)CCC(CN2CCN(c3ccc(C(=O)NS(=O)(=O)c4ccc(NCC5CCOCC5)c([N+](=O)[O-])c4)c(Oc4cnc5[nH]ccc5c4)c3)CC2)=C(c2ccc(Cl)cc2)C1 [Venetoclax] (first compound max 1 µM, 7x7, partner max 1 µM): 0.34
2. CCc1c2c(nc3ccc(O)cc13)-c1cc3c(c(=O)n1C2)COC(=O)[C@]3(O)CC [SN-38] + O=C(c1cc(Cc2n[nH]c(=O)c3ccccc23)ccc1F)N1CCN(C(=O)C2CC2)CC1 [Olaparib] (first compound max 0.3 µM, 7x7, partner max 10 µM): 0.256
3. NC1(C(=O)N[C@@H](CCO)c2ccc(Cl)cc2)CCN(c2ncnc3[nH]ccc23)CC1 [Capivasertib] + CCN(CCO)CCCOc1ccc2c(Nc3cc(CC(=O)Nc4cccc(F)c4)[nH]n3)ncnc2c1 [AZD2811] (first compound max 10 µM, 7x7, partner max 1 µM): 0.418

---

combination Emax listing for selected molecules.
# Tested on: KMOE-2 (Acute Myeloid Leukemia)
# METHOD NOTES: combination Emax (second highest fraction inhibited in the dose matrix, 72 h); higher = more inhibition; extreme values may be limits of the assay
MEASUREMENT LABEL: combination Emax

1. CN(CCO)CC[C@H](CSc1ccccc1)Nc1ccc(S(=O)(=O)NC(=O)c2ccc(N3CCC([C@@H](O)c4ccccc4-c4ccc(Cl)cc4)CC3)cc2)cc1S(=O)(=O)C(F)(F)F [AZD4320] + CN(C)CCCOc1ccc(-c2ccc3ncc4c(c3c2)n(C2CCOCC2)c(=O)n4C)cn1 [AZD0156] (first compound max 1 µM, 7x7, partner max 1 µM): 0.847
2. NC1(C(=O)N[C@@H](CCO)c2ccc(Cl)cc2)CCN(c2ncnc3[nH]ccc23)CC1 [Capivasertib] + COc1nnc2ccc(N3CCC(c4ccc(OCCN5CCN(C)C(=O)[C@H]5C)cc4)CC3)nn12 [AZD5153] (first compound max 10 µM, 7x7, partner max 1 µM): 0.831
3. NC1(C(=O)N[C@@H](CCO)c2ccc(Cl)cc2)CCN(c2ncnc3[nH]ccc23)CC1 [Capivasertib] + CC(=O)c1c(C)c2cnc(Nc3ccc(N4CCNCC4)cn3)nc2n(C2CCCC2)c1=O [Palbociclib] (first compound max 10 µM, 7x7, partner max 10 µM): 0.541

---

# System: ACHN (Kidney Carcinoma)
# METHOD NOTES: combination Emax (second highest fraction inhibited in the dose matrix, 72 h); higher = more inhibition; extreme values may be limits of the assay
Measured combination Emax by item
MEASUREMENT LABEL: combination Emax

1. Cc1cc2ncnn2cc1Nc1ncc2c(n1)n(C1CCOCC1)c(=O)n2C [AZD7648] + COc1cc([C@@H]2c3cc4c(cc3[C@@H](O[C@@H]3O[C@@H]5CO[C@@H](C)O[C@H]5[C@H](O)[C@H]3O)[C@H]3COC(=O)[C@H]23)OCO4)cc(OC)c1O [Etoposide] (first compound max 10 µM, 7x7, partner max 10 µM): 0.772
2. CCN(CCO)CCCOc1ccc2c(Nc3cc(CC(=O)Nc4cccc(F)c4)[nH]n3)ncnc2c1 [AZD2811] + C=CCn1c(=O)c2cnc(Nc3ccc(N4CCN(C)CC4)cc3)nc2n1-c1cccc(C(C)(C)O)n1 [AZD1775] (first compound max 1 µM, partner max 1 µM): 0.999
3. COc1cccc(OCCCN)c1-c1cc(Nc2cnc(C#N)cn2)n[nH]1 [Prexasertib] + O=C(c1cc(Cc2n[nH]c(=O)c3ccccc23)ccc1F)N1CCN(C(=O)C2CC2)CC1 [Olaparib] (first compound max 1 µM, 7x7, partner max 10 µM): 0.906
4. NC1(C(=O)N[C@@H](CCO)c2ccc(Cl)cc2)CCN(c2ncnc3[nH]ccc23)CC1 [Capivasertib] + CC(C)n1c(=O)n(C)c2cnc3cc(F)c(-c4ccc(OCCCN5CCCCC5)nc4)cc3c21 [AZD1390] (first compound max 10 µM, 7x7, partner max 0.3 µM): 0.185

---

# System: EW-24 (Ewing's Sarcoma)
# METHOD NOTES: Bliss excess, mean over the matrix (fraction); higher = more synergy
MEASUREMENT LABEL: Bliss excess

1) Cc1nc(-c2cn3c(n2)-c2ccc(-c4cnn(C(C)(C)C(N)=O)c4)cc2OCC3)n(C(C)C)n1 [Taselisib] + O=C(Nc1ccc2[nH]nc(-c3ccncc3)c2c1)[C@@H]1CCN(CC(=O)N2CCN(c3ccc(-c4ncccn4)cc3)CC2)C1 [SCH772984] (first compound max 10 µM, 7x7, partner max 5 µM): 0.0424
2) CN(CCO)CC[C@H](CSc1ccccc1)Nc1ccc(S(=O)(=O)NC(=O)c2ccc(N3CCC([C@@H](O)c4ccccc4-c4ccc(Cl)cc4)CC3)cc2)cc1S(=O)(=O)C(F)(F)F [AZD4320] + CC(=O)O[C@H]1C(=O)[C@@]2(C)[C@H]([C@H](OC(=O)c3ccccc3)[C@]3(O)C[C@H](OC(=O)[C@H](O)[C@@H](NC(=O)c4ccccc4)c4ccccc4)C(C)=C1C3(C)C)[C@]1(OC(C)=O)CO[C@@H]1C[C@@H]2O [Paclitaxel] (first compound max 1 µM, 7x7, partner max 3 µM): 0.17

---

# System: TK10 (Kidney Carcinoma)
# METHOD NOTES: Bliss excess, mean over the matrix (fraction); higher = more synergy
The entries below are paired with their reported Bliss excess.
MEASUREMENT LABEL: Bliss excess

1. COc1nnc2ccc(N3CCC(c4ccc(OCCN5CCN(C)C(=O)[C@H]5C)cc4)CC3)nn12 [AZD5153] + C[C@@H]1COCCN1C2=NC(=NC(=C2)C3(CC3)[S@](=N)(=O)C)C4=C5C=CNC5=NC=C4 [AZD6738] (first compound max 1 µM, 7x7, partner max 10 µM): -0.0406
2. C=CCn1c(=O)c2cnc(Nc3ccc(N4CCN(C)CC4)cc3)nc2n1-c1cccc(C(C)(C)O)n1 [AZD1775] + O=C(c1cc(Cc2n[nH]c(=O)c3ccccc23)ccc1F)N1CCN(C(=O)C2CC2)CC1 [Olaparib] (first compound max 1 µM, partner max 10 µM): -0.0601
3. CN(C)CCCOc1ccc(-c2ccc3ncc4c(c3c2)n(C2CCOCC2)c(=O)n4C)cn1 [AZD0156] + CCN(CCO)CCCOc1ccc2c(Nc3cc(CC(=O)Nc4cccc(F)c4)[nH]n3)ncnc2c1 [AZD2811] (first compound max 1 µM, 7x7, partner max 1 µM): -0.0342
4. C=CCn1c(=O)c2cnc(Nc3ccc(N4CCN(C)CC4)cc3)nc2n1-c1cccc(C(C)(C)O)n1 [AZD1775] + C[C@@H]1COCCN1C2=NC(=NC(=C2)C3(CC3)[S@](=N)(=O)C)C4=C5C=CNC5=NC=C4 [AZD6738] (first compound max 1 µM, partner max 10 µM): -0.0896
5. Cc1cc2ncnn2cc1Nc1ncc2c(n1)n(C1CCOCC1)c(=O)n2C [AZD7648] + CN(C)CCCOc1ccc(-c2ccc3ncc4c(c3c2)n(C2CCOCC2)c(=O)n4C)cn1 [AZD0156] (first compound max 10 µM, 7x7, partner max 1 µM): 0.013
6. CCN(CCO)CCCOc1ccc2c(Nc3cc(CC(=O)Nc4cccc(F)c4)[nH]n3)ncnc2c1 [AZD2811] + C=CCn1c(=O)c2cnc(Nc3ccc(N4CCN(C)CC4)cc3)nc2n1-c1cccc(C(C)(C)O)n1 [AZD1775] (first compound max 1 µM, partner max 1 µM): -0.0707
7. COc1cccc(OCCCN)c1-c1cc(Nc2cnc(C#N)cn2)n[nH]1 [Prexasertib] + Cc1cc2ncnn2cc1Nc1ncc2c(n1)n(C1CCOCC1)c(=O)n2C [AZD7648] (first compound max 1 µM, 7x7, partner max 10 µM): 0.0053
8. CS(=O)(=O)CCNCc1ccc(-c2ccc3ncnc(Nc4ccc(OCc5cccc(F)c5)c(Cl)c4)c3c2)o1 [Lapatinib] + C[C@@H](Oc1cc(-c2cnn(C3CCNCC3)c2)cnc1N)c1c(Cl)ccc(F)c1Cl [Crizotinib] (first compound max 10 µM, 7x7, partner max 10 µM): -0.0655

---

Readings of combination Emax for the listed compounds
# Tested on: Hs-766T (Pancreatic Carcinoma)
# METHOD NOTES: combination Emax (second highest fraction inhibited in the dose matrix, 72 h); higher = more inhibition; extreme values may be limits of the assay
MEASUREMENT LABEL: combination Emax

1) C[C@@H](c1ccc2nccn2c1)n1nnc2ncc(-c3cnn(C)c3)nc21 [Savolitinib] + CC1(C)CCC(CN2CCN(c3ccc(C(=O)NS(=O)(=O)c4ccc(NCC5CCOCC5)c([N+](=O)[O-])c4)c(Oc4cnc5[nH]ccc5c4)c3)CC2)=C(c2ccc(Cl)cc2)C1 [Venetoclax] (first compound max 1 µM, 7x7, partner max 1 µM): 0.252
2) C[C@@H]1COCCN1c1cc(C2([S@](C)(=N)=O)CC2)nc(-c2ccnc3[nH]ccc23)n1 [AZD6738] + O=C(c1cc(Cc2n[nH]c(=O)c3ccccc23)ccc1F)N1CCN(C(=O)C2CC2)CC1 [Olaparib] (first compound max 10 µM, 7x7, partner max 10 µM): 0.554
3) CN(C)CCCOc1ccc(-c2ccc3ncc4c(c3c2)n(C2CCOCC2)c(=O)n4C)cn1 [AZD0156] + O=C(c1cc(Cc2n[nH]c(=O)c3ccccc23)ccc1F)N1CCN(C(=O)C2CC2)CC1 [Olaparib] (first compound max 3 µM, partner max 3 µM): 0.207
